System: MS2 coat protein
Test: apparent KD of MS2 coat protein, switch OFF state (with FMN for OFF switches, without FMN for ON switches); designed switch direction (-1 OFF switch, 1 ON switch): 1; higher = weaker reporter binding
Conditions: FMN input: 0 or 200 uM; Eterna round: R93 (includes R88 designs)
Readout Type: apparent KD of MS2 coat protein (nM)
Please reply with the bare figure in nM and do not write the unit itself.

Example cases with answers are listed next.
GAAAAACAUGAGGAUCACCCAUGUAAUACAACGUCAGGAUAUUGAUUUUAUUAUGUAUUGCAAGAAGGGACAAAAG [Mat - Same State 1 - Hyphema mod - D99] | 49.4
AAAAAACAUGAGGAUCACCCAUGUAUAAAAAUGGGAGGAUAUACUAAGACGAAAGUCAUAGUAGAAGGUCUAAAAA [76%, Meechl, 11] | 241
AAAAAACAUGAGGAUCACCCAUGUCAAAAGACAUGAGGAUAUGUACAGACUUCGGUCUGUACAGAAGGCAUGAAAA [SS1 - 1011] | 524
UAUUAUUACACGAAGGAUAUCGAUAAUAGUACAUGAGGAUCACCCAUGUUCAUAUCAUUUUAGUUCGAGAAGGUCGAGGGUGAAG [JR_SS002_Sub709] | 20.1
GUAUAUAUAAGACAGGAUAUCCGAAAGUAAACAUGAGGAUCACCCAUGUAAAGAAAGAAACUCAUGGAGAAGGGUCAAUAUAUAC [Mat - Same State 2 - Tesla mod - D83] | 66.7

Asked: Name the reported apparent KD of MS2 coat protein value associated with the sequence CAAACAACAGCACAGGAUAUCCAUAUAAUAACAUGAGGAUCACCCAUGUAAGCGGAAAAUAACGCGGAGAAGGGUGAACACACAA [Default title]
Given back: 35.1
